# Study target: binding partner of C5A (XPA23)
# Method summary: Biacore
Parameter: fold affinity vs original
Hi, when you answer, please include the unit after the number. Thanks!

C5A (XPA23) VH M57Y (antibody, V domains shown) VH: EVQLLESGGGLVQPGGSLRLSCAASGFTFSKYFMFWVRQAPGKGLEWVSVISPSGGYTRYADSVKGRFTISRDNSKNTLYLQMNSLRAEDTAVYYCARVGYGGNSDYWGQGTLVTVSS VL: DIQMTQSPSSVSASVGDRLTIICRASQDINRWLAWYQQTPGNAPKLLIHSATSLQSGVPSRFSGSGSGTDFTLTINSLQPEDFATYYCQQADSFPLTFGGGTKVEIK yielded fold affinity vs original of 0.86 fold

Please fill in: fold affinity vs original reported for C5A (XPA23) VH P53E (antibody, V domains shown) VH: EVQLLESGGGLVQPGGSLRLSCAASGFTFSKYFMFWVRQAPGKGLEWVSVISESGGMTRYADSVKGRFTISRDNSKNTLYLQMNSLRAEDTAVYYCARVGYGGNSDYWGQGTLVTVSS VL: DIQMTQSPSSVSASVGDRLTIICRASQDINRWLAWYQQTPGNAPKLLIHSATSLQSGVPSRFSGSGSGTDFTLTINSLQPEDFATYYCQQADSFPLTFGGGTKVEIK = 0.03 fold

// sample C5A (XPA23) VH G55Q (antibody, V domains shown) VH: EVQLLESGGGLVQPGGSLRLSCAASGFTFSKYFMFWVRQAPGKGLEWVSVISPSQGMTRYADSVKGRFTISRDNSKNTLYLQMNSLRAEDTAVYYCARVGYGGNSDYWGQGTLVTVSS VL: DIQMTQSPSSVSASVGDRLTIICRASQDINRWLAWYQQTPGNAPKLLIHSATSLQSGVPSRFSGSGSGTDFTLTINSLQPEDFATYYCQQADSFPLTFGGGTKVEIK , its fold affinity vs original was 0.9 fold
